# Test system: KG-1;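 note: growth inhibition of KG-1 cells, read out by a cell viability assay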
# Test Protocol: cells
# Format: functional, cell-based
# Cond: Homo sapiens
# Description: SANGER: Inhibition of human KG-1 cell growth in a cell viability assay.
Each entry below carries its reported pIC50.
Scale for pIC50: -log10 of concentration given in mol/L; no unit attached.

Here is how some compounds turned out for pIC50.
1. CCCS(=O)(=O)Nc1ccc(F)c(C(=O)c2c[nH]c3ncc(Cl)cc23)c1F: 5.32
2. CC[C@@]1(O)C(=O)OCc2c1cc1n(c2=O)Cc2cc3ccccc3nc2-1: 8.95
3. C[C@]12O[C@H](C[C@]1(O)CO)n1c3ccccc3c3c4c(c5c6ccccc6n2c5c31)CNC4=O: 6.39
4. Fc1cc(-c2cc[nH]/c(=N/c3ccc(-n4cnc(N5CCOCC5)n4)cc3)n2)cc(N2CCOCC2)c1: 6.32

Exercise: Given the entry `NC(=O)c1ncn([C@@H]2O[C@H](COP(=O)(O)O)[C@@H](O)[C@H]2O)c1N` , report its measured pIC50.
Solution: 3.52
